// reported AR degradation (%) at 1 µM for each item listed
# assay_system: androgen receptor (AR) (Homo sapiens)
# Construct: detects endogenous levels of total androgen receptor protein; host or cells: VCaP
# test: AR ELISA assay (degradation)
# Format: cell-based
# experimental_setup: VCaP cells, 16 h
# Experimental: The following biological assays were performed to evaluate the protein degradation in various cell types using representative compounds disclosed. The degradation of the following proteins were evaluated: bromodomain-containing protein 4 (BRD4), androgen receptor (AR), c-Myc, c-Jun N-terminal kinases (JNK), and enhancer of zeste homolog 2 (EZH2). […]
assay_readout: AR degradation (%) at 1 µM

• CC(C)(C)CC1NC(C(=O)NCCCOCCCCCOc2ccc(N3C(=S)N(c4ccc(C#N)c(C(F)(F)F)c4)C(=O)C3(C)C)cc2)C(c2cccc(Cl)c2F)C1(C#N)c1ccc(Cl)cc1F (stereo not drawn) = > 50%
• CC(C)(C)C[C@@H]1NC(C(=O)NCCOCCOCCOc2ccc(C(=O)N[C@H]3C(C)(C)[C@H](Oc4ccc(C#N)c(Cl)c4)C3(C)C)cc2)[C@H](c2cccc(Cl)c2F)[C@@]1(C#N)c1ccc(Cl)cc1F (stereo partly drawn) = 0 to 25%
• CC(C)(C)C[C@@H]1NC(C(=O)NCCOCCOCCOCCOCCOc2ccc(C(=O)N[C@H]3C(C)(C)[C@H](Oc4ccc(C#N)c(Cl)c4)C3(C)C)cc2)[C@H](c2cccc(Cl)c2F)[C@@]1(C#N)c1ccc(Cl)cc1F (stereo partly drawn) = 25 to 50%

====

# assay_system: androgen receptor (AR) (Homo sapiens, UniProt P10275)
# Construct: detects endogenous levels of total androgen receptor protein; host or cells: VCaP
# test: AR ELISA assay (degradation)
# Assay type: cell-based
# experimental_setup: VCaP cells, 16 h
assay_readout: AR degradation (%) at 1 µM

- CC(C)(C)C[C@@H]1NC(C(=O)NCCOCCOCCOCCOc2ccc(C(=O)N[C@H]3C(C)(C)[C@H](Oc4ccc(C#N)c(Cl)c4)C3(C)C)cc2)[C@H](c2cccc(Cl)c2F)[C@@]1(C#N)c1ccc(Cl)cc1F (some centres unmarked): 0 to 25%
- CCOc1cc(C(C)(C)C)ccc1C1=NC(C)(c2ccc(Cl)cc2)C(C)(c2ccc(Cl)cc2)N1C(=O)N1CCN(CCOCCOc2ccc(N3C(=S)N(c4ccc(C#N)c(C(F)(F)F)c4)C(=O)C3(C)C)cc2)CC1 (centres unmarked): 0 to 25%

====

# assay_system: androgen receptor (AR) (Homo sapiens)
# Construct: detects endogenous levels of total androgen receptor protein; host or cells: VCaP
# Sequence (P10275 1-920): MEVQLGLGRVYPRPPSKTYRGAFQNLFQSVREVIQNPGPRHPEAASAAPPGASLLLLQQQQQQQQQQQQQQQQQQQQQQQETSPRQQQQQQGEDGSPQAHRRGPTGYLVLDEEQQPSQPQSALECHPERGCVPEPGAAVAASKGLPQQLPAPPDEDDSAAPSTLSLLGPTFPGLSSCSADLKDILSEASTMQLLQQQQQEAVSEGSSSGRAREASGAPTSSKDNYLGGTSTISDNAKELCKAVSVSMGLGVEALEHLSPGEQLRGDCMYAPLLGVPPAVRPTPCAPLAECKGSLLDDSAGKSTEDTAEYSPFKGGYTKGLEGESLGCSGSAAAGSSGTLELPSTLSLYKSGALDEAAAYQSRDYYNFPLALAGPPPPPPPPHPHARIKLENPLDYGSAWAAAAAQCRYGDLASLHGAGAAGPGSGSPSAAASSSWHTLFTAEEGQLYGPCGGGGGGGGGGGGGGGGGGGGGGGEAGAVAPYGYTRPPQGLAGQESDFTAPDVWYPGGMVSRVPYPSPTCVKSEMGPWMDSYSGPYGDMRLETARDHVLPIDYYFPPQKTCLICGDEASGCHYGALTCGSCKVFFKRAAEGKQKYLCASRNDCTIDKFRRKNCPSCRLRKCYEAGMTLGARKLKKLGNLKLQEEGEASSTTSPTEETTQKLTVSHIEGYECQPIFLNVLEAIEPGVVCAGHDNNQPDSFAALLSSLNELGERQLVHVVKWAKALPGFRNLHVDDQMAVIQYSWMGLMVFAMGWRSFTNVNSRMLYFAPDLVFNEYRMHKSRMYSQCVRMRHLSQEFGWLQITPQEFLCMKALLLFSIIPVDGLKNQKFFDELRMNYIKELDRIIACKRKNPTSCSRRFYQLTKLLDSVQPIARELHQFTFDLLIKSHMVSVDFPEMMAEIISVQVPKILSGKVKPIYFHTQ
# test: AR ELISA assay (degradation)
# Assay type: cell-based
# experimental_setup: VCaP cells, 16 h
// reported AR degradation (%) at 1 µM for each item listed
assay_readout: AR degradation (%) at 1 µM

- CC(C)(C)C[C@@H]1N[C@@H](C(=O)NCCOCCOCCOCCOCCOc2ccc(C(=O)N[C@H]3C(C)(C)[C@H](Oc4ccc(C#N)c(Cl)c4)C3(C)C)cc2)[C@H](c2cccc(Cl)c2F)[C@@]1(C#N)c1ccc(Cl)cc1F: 25 to 50%
- COc1cc(C(=O)NCCCOCCCCCOc2ccc(N3C(=S)N(c4ccc(C#N)c(C(F)(F)F)c4)C(=O)C3(C)C)cc2)ccc1NC(=O)C1NC(CC(C)(C)C)C(C#N)(c2ccc(Cl)cc2F)C1c1cccc(Cl)c1F (centres unmarked): > 50%
